- experiment: Absorption and Excretion (urine and bile recovery rates after oral administration)
- Format: in vivo, Male SD rats
- condition-set: rat, urine and bile, 20 mg/kg, rats, oral 20 mg/10 ml/kg, 24 hours, total recovery rate, read-out: Recovery rate (24 hours), Total recovery rate

>  <chem-smiles>
Cc1c(N2CC(C)(N)C2)c(F)cc2c(=O)c(C(=O)O)cn(-c3cc(N)c(F)cc3F)c12

>  <dose excreted at 24 h, %>
30.6

$$$$

---

- experiment: Absorption and Excretion (urine and bile recovery rates after oral administration)
- Format: in vivo, Male SD rats
- condition-set: rat, bile, 20 mg/kg, rats, oral 20 mg/10 ml/kg, 0-24 hours, bile with no further treatment, read-out: Recovery rate (24 hours), Bile

>  <chem-smiles>
Cc1c(N2CC(C)(N)C2)c(F)cc2c(=O)c(C(=O)O)cn(-c3cc(N)c(F)cc3F)c12

>  <dose excreted at 24 h / %>
10.4

$$$$
